Each recorded value in this set is attributed to PubChem BioAssay.

# MEASUREMENT_PROTOCOL: SK-BR-3 cell growth inhibitors, pilot screen, 24 h, human (AID 572);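 further: compound exposure lasted between 18 and 24 h rather than exactly 24 h; 100% = carrier-treated control wells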
# PARTICULARS: SK-BR-3 viability, CellTiter-Glo luminescence, at 10 µM, stronger effect = lower value
# reported viability; entries follow
A number alone suffices; assume %.

// below: answered compounds
>>> reported_measurement("O=C(Nc1ccccc1N1CCOCC1)c1ccc2ccccc2n1")
90
>>> reported_measurement("CCOC(=O)c1[nH]c(C)c(C(=O)NCC2CCCO2)c1C (stereo not given)")
99
>>> reported_measurement("COC(=O)c1sc(N2C(=O)C(O)=C(C(=O)c3ccc(C)o3)C2c2ccc(F)cc2)nc1C (stereo not given)")
95
>>> reported_measurement("O=C(O)C1CCCCC1C(=O)NCCc1ccccc1 (stereo not given)")
87.5
>>> reported_measurement("CCc1nnc(NC(=O)c2ccc(COc3ccccc3)o2)s1")
97
>>> reported_measurement("O=S(=O)(c1ccccc1)c1nc(-c2ccco2)oc1NCCCN1CCOCC1")
91

Query: viability lookup needed for "CCOC(=O)N1CCC(O)(c2cc(C)c(C)cc2C)CC1" , thanks.
Result: 102

Query: viability lookup needed for "Cc1ccc(S(=O)(=O)C2(C(=O)Nc3nccs3)CC2)cc1" , thanks.
Result: 95

Query: viability lookup needed for CCOC(=O)C(NCc1ccccc1OC)(NC(C)=O)C(F)(F)F (stereo not given) , thanks.
Result: 116

Query: viability lookup needed for "Nc1nnc(SCC(=O)N2CCc3ccccc32)n1-c1ccccc1" , thanks.
Result: 102

---

# MEASUREMENT_PROTOCOL: reducers of endogenous Her2 protein level, primary screen, SKBR3 breast tumor cells, AlphaScreen, ATP viability (AID 461);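 on viability: percent of carrier control wells set as 100% viability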
# PARTICULARS: 18-24 h, measured here: SKBR3 viability, ATP luminescence, at 10 µM
PROPERTY_MEASURED: viability (%)
A number alone suffices; assume %.

>>> reported_measurement("COc1cccc(C(=O)CN2CCC(NC(=O)NC3CCCCC3)CC2)c1")
92
>>> reported_measurement("COC(=O)CNC(=O)c1c(C)cc(=O)oc1C")
89.5

Query: viability lookup needed for "Clc1ccc2nc(N3CCCCC3)[nH]c2c1" , thanks.
Result: 90.5

Query: viability lookup needed for CSCCC(C(=O)Nc1ccc2c(c1)OCO2)N1C(=O)c2ccccc2C1=O (centres undefined) , thanks.
Result: 91

---

# reported Her2 level; entries follow
# TESTED_ON: Receptor tyrosine-protein kinase erbB-2 (Homo sapiens) (UniProt P04626)
# Sequence (P04626 whole entry, looked up): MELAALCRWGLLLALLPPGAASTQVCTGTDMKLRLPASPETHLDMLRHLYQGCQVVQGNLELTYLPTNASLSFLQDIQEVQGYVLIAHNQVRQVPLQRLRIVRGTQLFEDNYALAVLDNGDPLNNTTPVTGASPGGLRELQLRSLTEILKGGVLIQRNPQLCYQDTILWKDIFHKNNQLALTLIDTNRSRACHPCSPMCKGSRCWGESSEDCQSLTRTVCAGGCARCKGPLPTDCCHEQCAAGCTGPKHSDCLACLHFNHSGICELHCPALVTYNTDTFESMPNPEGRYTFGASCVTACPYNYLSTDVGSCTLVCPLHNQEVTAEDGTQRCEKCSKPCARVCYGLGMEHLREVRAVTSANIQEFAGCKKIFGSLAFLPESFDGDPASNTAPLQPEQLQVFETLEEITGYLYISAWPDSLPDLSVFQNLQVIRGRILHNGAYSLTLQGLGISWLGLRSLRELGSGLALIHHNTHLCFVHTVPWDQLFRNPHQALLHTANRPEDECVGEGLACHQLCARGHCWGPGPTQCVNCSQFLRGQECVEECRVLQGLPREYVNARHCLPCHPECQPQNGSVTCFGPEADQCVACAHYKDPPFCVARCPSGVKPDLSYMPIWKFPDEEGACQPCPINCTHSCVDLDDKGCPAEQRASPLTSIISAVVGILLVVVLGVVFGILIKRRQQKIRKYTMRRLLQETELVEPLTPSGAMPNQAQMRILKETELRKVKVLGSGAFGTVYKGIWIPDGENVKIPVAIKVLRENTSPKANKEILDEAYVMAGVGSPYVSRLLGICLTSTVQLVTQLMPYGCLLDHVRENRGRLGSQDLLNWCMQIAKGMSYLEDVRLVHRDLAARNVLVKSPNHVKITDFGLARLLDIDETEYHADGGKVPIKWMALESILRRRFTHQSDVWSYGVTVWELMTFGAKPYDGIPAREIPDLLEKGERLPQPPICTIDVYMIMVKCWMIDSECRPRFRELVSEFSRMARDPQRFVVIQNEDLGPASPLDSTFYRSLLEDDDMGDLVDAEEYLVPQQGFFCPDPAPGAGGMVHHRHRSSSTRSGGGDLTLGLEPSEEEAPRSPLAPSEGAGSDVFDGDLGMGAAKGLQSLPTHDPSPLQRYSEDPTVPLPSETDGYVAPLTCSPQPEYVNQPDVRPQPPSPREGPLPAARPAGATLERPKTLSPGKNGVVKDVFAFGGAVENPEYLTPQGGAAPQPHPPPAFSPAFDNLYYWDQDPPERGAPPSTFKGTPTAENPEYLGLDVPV
# MEASUREMENT_PROTOCOL: reducers of endogenous Her2 protein level, primary screen, SKBR3 breast tumor cells, AlphaScreen, ATP viability (AID 461);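 on Her2 level: lower value means less Her2 protein in the cells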;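 on viability: percent of carrier control wells set as 100% viability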
# PARTICULARS: 18-24 h, at 10 µM, stronger effect = lower value
A number alone suffices; assume %.

>>> reported_measurement("c1ccc(CCNc2ccc3nncn3n2)cc1")
89.5
>>> reported_measurement("CCOc1ccccc1-n1c(SCC(=O)NCc2ccco2)nnc1-c1ccncc1")
90

Query: Her2 level lookup needed for COc1cc(NC(=O)C(C)Oc2ccccc2)c(C(=O)O)cc1OC (stereo not drawn) , thanks.
Result: 90

---

# MEASUREMENT_PROTOCOL: reversal of MRP1-mediated doxorubicin resistance, pilot screen, H69AR cells, doxorubicin co-treatment (AID 601)
# PARTICULARS: H69AR cells + 2 uM doxorubicin, CellTiter-Glo, 72 h; at 10 µM; stronger effect = higher value
# reported differential viability (reversal); entries follow
A number alone suffices; assume %.

// below: answered molecules
>>> reported_measurement("CC1(C)C(=O)Nc2ccccc2N1C(=O)COC(=O)Cn1cnc2ccccc2c1=O")
1.74
>>> reported_measurement("COc1ccc(-c2nn3c(-c4ccncc4)nnc3s2)cc1OC")
-8.5

Query: differential viability (reversal) lookup needed for CCc1nnc(NC(=O)C2CC(=O)N(Cc3ccco3)C2)s1 (stereo not drawn) , thanks.
Result: 4

Query: differential viability (reversal) lookup needed for "NC(=O)c1c(-c2ccccc2)oc2ccc(O)cc12" , thanks.
Result: 13.4

Query: differential viability (reversal) lookup needed for CC(C)=CCCC(C)N(C=O)C(C)CCC=C(C)C (stereo not drawn) , thanks.
Result: 7.05
